test-method-notes: Tissue distribution of SHR9146 in mice after oral gavage of 40 mg/kg
Format: in vivo, ICR mice
experimental-conditions: female, ICR, mouse, whole blood, po, 40 mg/kg, female, 1 h, 40 mg/kg oral gavage, Mean (n=3); read-out: SHR9146 concentration in Whole blood
endpoint-label: concentration at 1 h (ng/mL)
Reply numerically in ng/mL, unit not repeated.

Q: Return the recorded concentration at 1 h value; entry: OCCn1cc(-c2ccc(N3CCC([C@H]4c5c(F)cccc5-c5cncn54)CC3)cc2)cn1 [SHR9146]
A: 8660

---

test-method-notes: Tissue distribution of SHR9146 in mice after oral gavage of 40 mg/kg
Assay type: in vivo, ICR mice
experimental-conditions: male, ICR, mouse, brain, po, 40 mg/kg, male, 3 h, 40 mg/kg oral gavage, individual mice; read-out: SHR9146 concentration in Brain
endpoint-label: concentration at 3 h

Q: Return the recorded concentration at 3 h value; entry: OCCn1cc(-c2ccc(N3CCC([C@H]4c5c(F)cccc5-c5cncn54)CC3)cc2)cn1 [SHR9146]
A: 1020 ng/g
